Hey, just so you know, these numbers are from patent US6492530B1.

Assay: physchem
Details: aqueous media at physiological pHs, aqueous buffer
From the text: A crystalline form of the compound of formula I is known. See, e.g., U.S. Pat. No. Re. 36,736. […] (Id. column 22, lines 5-6). […] See, e.g. U.S. Pat. No. 6,048,887 and EP 0 988,863.
readout label: solubility

> print(dat)
                                   molecule      result
1  Cn1cc(C2=C(c3cn(C)c4cc([N+](=O)[O-])ccc34)C(=O)NC2=O)c2ccccc21 [crystalline compound of formula I, reference compound]  < 10 µg/mL

====

Assay: Bioavailability / pharmacokinetics in beagle dogs after single oral dose
Assay type: in vivo
Details: dog, in vivo; in dogs; previously known crystalline form (background statement)
Protocol: Additionally, preparations containing crystalline compound of formula I (Examples IIIB and IIIC) and amorphous compound of formula I (Example IIA) were evaluated for bioavailability in beagle dogs with body weight of approximately 10 kg. Each dog was given a formulation containing 90 mg of compound of formula I. Blood samples were collected from each dog prior to dosing (0 h) and at 0.5, 1, 2, 4, 6, 8, 12, 24, 36 and 48 hours after dosing. EDTA was used as an anticoagulant. […]
readout label: bioavailability

> print(dat)
                                   compound    readout.label  result
1  Cn1cc(C2=C(c3cn(C)c4cc([N+](=O)[O-])ccc34)C(=O)NC2=O)c2ccccc21 [crystalline compound of formula I, reference compound]  bioavailability    < 5%
